- Tested on: LOX IMVI melanoma
- Assay Text: NCI-60 one-dose screen, 48 h (100 = growth as untreated, 0 = no growth, -100 = all killed)
- Experimental Setup: 10 µM unless noted
This is part of a sample that, as a whole, favours compounds with a hit. Of some 83,000 tested, about 20% had one in any assay.
Assay Endpoint: growth (%)
The figure you give is taken to be in %; do not add the unit.

Problem: Give the reported growth for `COc1cccc(OC)c1C(=O)N[C@@H]1C(=O)N2[C@@H]1SC(C)(C)[C@@H]2C(=O)O` (system: LOX IMVI melanoma).
Result: 100

Problem: Repeat with `c1cc(-c2nnc(SSc3ncnc4nc[nH]c34)o2)ccn1`
Result: 9.77

Problem: Repeat with `CCOC(=O)c1cn2ncnc(Oc3ccc(NC(=O)NCCN(CC)CC)c(Cl)c3)c2c1C`
Result: -32.7

Problem: Repeat with `[O-][n+]1c2ccccc2[n+]([O-])c2c3ccccc3[nH]c21`
Result: 98.3

Problem: Repeat with Cc1nc2ccccc2n1-c1ncnc2c1CC(C)c1ccccc1N2C (centres undefined)
Result: 82.7

Problem: Repeat with `CN1C(=O)CNC(=O)[C@H](NC(=O)c2nc3ccccc3cc2O)CSSC[C@H]1C(=O)NCCCc1nc2ccccc2cc1O`
Result: -52.4

Problem: Repeat with `Cc1ccc(C(=O)NCCNc2nccc(-c3c(-c4cccc(F)c4)nc4sccn34)n2)cc1`
Result: 39.4

Problem: Repeat with `NC1CCN(c2nc(Nc3cccc(C(F)(F)F)c3)c3c(=O)[nH]ccc3n2)CC1`
Result: -94.2

Problem: Repeat with `N#Cc1c(Nc2cccc(Cl)c2)sc(C(=O)c2cc3cc(Cl)ccc3o2)c1N`
Result: 85.9

Problem: Repeat with `CCN(CC)Cc1cc(Nc2c3ccc(Cl)cc3nc3ccc(OC)cc23)ccc1O`
Result: 24.9

Problem: Repeat with Cc1cccc2c3c(sc12)C(c1ccc(Cl)cc1)C(C#N)=C(N)O3 (centres undefined)
Result: 18.4

Problem: Repeat with `O=C(CCN1C(=O)/C(=C/c2ccc(O)cc2)SC1=S)Nc1ccccc1`
Result: 97.6

Problem: Repeat with `CC1=C(C)C(=O)C(Nc2cccc(C(=O)OC(C)(C)C)c2)=C(Br)C1=O`
Result: 34.9

Problem: Repeat with `COc1ccc(-c2cnc3ccccc3n2)cc1`
Result: 101

Problem: Repeat with `C(=N/Nc1ncnc2nc[nH]c12)/c1ccccn1`
Result: 19.1

Problem: Repeat with `O=C1/C(=C/c2ccccc2[N+](=O)[O-])Oc2ccc(O)c(O)c21`
Result: 14.3

Problem: Repeat with `Cc1cccc2c(=O)c3c(sc12)c(NCc1ccccc1)nc1ccccc13`
Result: 93.6

Problem: Repeat with `C[C@]12CC[C@@H]3c4cc(OC(F)F)c(OS(N)(=O)=O)cc4CC[C@H]3[C@@H]1CC[C@@H]2O`
Result: 28.6

Problem: Repeat with `Cc1ccc(C(=O)N/N=C/c2cccc([N+](=O)[O-])c2)cn1`
Result: 105

Problem: Repeat with CN(C)CCN1CCN(c2ncccc2C2Nc3ccccc3-n3cccc32)CC1 (centres undefined)
Result: 99.9

Problem: Repeat with `O=C(N/N=C/[C@H](O)[C@@H](O)[C@@H](O)[C@H](O)CO)c1ccc(NC(=O)c2cccnc2)cc1`
Result: 104

Problem: Repeat with `c1ccc(Cc2nn3cc(-c4ccccc4)nc3s2)cc1`
Result: 86.2

Problem: Repeat with O=CN1N=C(c2ccc(Nc3ccnc4cc(Cl)ccc34)cc2)CC1c1ccccc1 (centres undefined)
Result: 13.7

Problem: Repeat with `COC(=O)c1ccc2[nH]c(O)c(C(=Nc3ccc(N(C)C(=O)CN4CCN(C)CC4)cc3)c3ccccc3)c2c1`
Result: 16.3

Problem: Repeat with `COc1cccc(-c2nc(-c3ccc(NC(=O)OC(C)C)cc3)[nH]c2-c2ccnc(Br)c2)c1`
Result: 2.73

Problem: Repeat with `Cc1ncc(C(=O)Nc2ccc(CN3CCN(C)CC3)c(C(F)(F)F)c2)cc1C#Cc1ccc(N)nc1`
Result: -94.9

Problem: Repeat with `O=[N+]([O-])c1ccc(Oc2nc(Nc3ccc(O[C@H]4CO[C@H]5[C@@H]4OC[C@@H]5O)c(Cl)c3)ncc2F)c(Cl)c1`
Result: 16.7

Problem: Repeat with `O=C(CSc1nccc(Nc2ccc(S(=O)(=O)Nc3nccs3)cc2)n1)c1ccc(C(F)(F)F)cc1`
Result: 99.2

Problem: Repeat with CC(=O)OC[C@H]1OC(Sc2sc(C(=O)c3ccc(Br)cc3)c(N)c2-c2nc3ccccc3s2)[C@H](OC(C)=O)[C@@H](OC(C)=O)[C@H]1OC(C)=O (some centres undefined)
Result: 96.8

Problem: Repeat with `C[C@H](C(=O)Nc1ccc(S(N)(=O)=O)cc1)S(=O)(=O)c1ccccc1`
Result: 98

Problem: Repeat with COc1cc(C(=O)N2N=C(c3ccc(S(C)(=O)=O)cc3)CC2c2ccco2)cc(OC)c1OC (centres undefined)
Result: 50.5

Problem: Repeat with CCn1cnc2c1c(=O)[nH]c(=O)n2CC1CCC(CNS(=O)(=O)c2ccc(OC3CCOCC3)c(F)c2)CC1 (centres undefined)
Result: 38.4

Problem: Repeat with COc1ccc(-c2cc3c4c(nc5ccccc5c4c2)CC(c2cc(OC)c(OC)c(OC)c2)O3)cc1 (centres undefined)
Result: 38.4

Problem: Repeat with `COc1ccc(/C=N/Nc2cc(=O)[nH]c3ccc(C)cc23)cc1`
Result: 91.5

// data source = PubChem BioAssay (NCI)
